System: MCF7 breast
Experiment: NCI tumour cell line growth inhibition, 48 h
// TGI lookup, one value per entry

Query block: Recall and state the measured TGI for CC(N)(Cc1c[nH]c2ccccc12)C(=O)O (stereo not given) .
Result block: > 2500 µM

Query block: Recall and state the measured TGI for "O=C1N[C@H]2C(=O)c3c(Cl)sc(Cl)c3[C@H]2O1" .
Result block: 52.5 µM

Query block: Recall and state the measured TGI for FC(F)(F)c1ccc2c(c1)nc(Cc1ccc(Cl)c(Cl)c1)n2CC1CCCN2CCCCC12 (stereo not given) .
Result block: 62.9 µM

----------
System: IGROV1 ovarian
Assay: NCI tumour cell line growth inhibition, 48 h; in the data active = GI50 below about 0.43 µM; inactive = the rest
# valid calls are active, inactive; nothing else

Molecule	Label
Cc1cc(Nc2cc(CN3CCOCC3)c3nc(C)c(Cc4ccc(Cl)cc4F)n3n2)n[nH]1	inactive
C=CC[N+]1(CCO)CCN=C1CCCCCCCCCCCCC (stereo not drawn)	active
O=C(CCc1ccco1)NC1CCN(CC2(c3ccc(Cl)cc3)CCC2)CC1	inactive

Query block: GET /call?item= "COc1ccc2c(O)c(/C=C3\N=Nc4ncccc43)oc2c1C[C@H]1CCNC[C@H]1F" returns the recorded outcome of this test.
Result block: active

Query block: GET /call?item= "COc1cc(C(C)(C)C)cc(OC)c1C(O)(c1c(OC)cc(C(C)(C)C)cc1OC)c1c(OC)cc(C(C)(C)C)cc1OC" returns the recorded outcome of this test.
Result block: active

Query block: GET /call?item= CCN1CCC2(CC1)NC(=O)c1c(c3ccc(Cl)c(Cl)c3n1C)C2C#N (stereo not drawn) returns the recorded outcome of this test.
Result block: inactive

Query block: GET /call?item= "CCc1nc(-n2c(CC)nc3ccccc3c2=O)nc(N)c1-c1ccc(Cl)cc1" returns the recorded outcome of this test.
Result block: inactive

Query block: GET /call?item= "O=[N+]([O-])c1cccc(/C=C/c2ccccn2)c1" returns the recorded outcome of this test.
Result block: inactive
